Assignment: determine reported inhibition for the given compounds.
# assay.info: parental Ba/F3 cell viability inhibition, counter-screen for JAK2V617F inhibitor project, murine pro-B, CellTiter-Glo luminescence (AID 1486);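 note: 0% = DMSO wells and 100% = JAK Inhibitor I control wells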
# conditions: CellTiter-Glo ATP luminescence, at 5.6 µM, active compounds read high
Out of some 220,000 compounds screened, about 2,400 (1.1%) were called active. What follows is part of a selection rich in actives, with near analogues and random picks from the rest.
Kindly provide the numeric value in % only, without the unit symbol.

Form field inhibition, entry Clc1ccc(C[n+]2cc(-c3ccccc3)n3c2CCC3)cc1 : 63.7

Form field inhibition, entry CCOc1cccc(-c2nnc3sc(COc4ccc(OC)cc4)nn23)c1 : 3.78

Form field inhibition, entry O=C(C1CCCO1)N1CCN(C(=S)Nc2cccc(Cl)c2)CC1 (stereo unspecified) : 9.12

Form field inhibition, entry Clc1ccc(C[n+]2cc(-c3ccc(Cl)cc3)n3c2CCC3)cc1 : 58.9

Form field inhibition, entry COc1ccccc1C1C2=C(COC2=O)Nc2cc3c(cc21)OCO3 (stereo unspecified) : 80.4

Form field inhibition, entry Cn1c(-c2ccccc2)c[n+]2c1CCCCC2 : 3.67

Form field inhibition, entry CCOc1cccc(-n2nnnc2-c2ccc(OC)cc2)c1 : 56.8

Form field inhibition, entry O=C(C[n+]1cc(-c2ccc(Cl)c(Cl)c2)n2c1CCC2)c1cccs1 : 10.5

Form field inhibition, entry COc1ccc(C2CC(=O)Nc3cc(C)c(C)cc32)c(OC)c1OC (stereo unspecified) : 3.54

Form field inhibition, entry CC1(C)CC(CNCCC(c2ccc(F)cc2)c2ccco2)CCO1 (stereo unspecified) : 4.73

Form field inhibition, entry Cc1ccc(-c2c[n+](CC(=O)Nc3ccccc3)c3n2CCC3)cc1 : 0.41

====

# assay.info: parental Ba/F3 cell viability inhibition, counter-screen for JAK2V617F inhibitor project, murine pro-B, CellTiter-Glo luminescence (AID 1486);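 note: 0% = DMSO wells and 100% = JAK Inhibitor I control wells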
# conditions: CellTiter-Glo ATP luminescence, at 5.6 µM
The campaign covered roughly 220,000 compounds. About 2,400 (1.1%) were called active.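 The calls were made as follows: active = inhibition above a per-campaign cutoff, the mean inhibition of all tested compounds plus 3 SD (cut at about 27% in these data); inactive = the rest.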 The sample holds actives, similar compounds and a random draw of the others, so the mix is not that of the screen.
API: response.call in Yes (active), No (inactive)

# outcome recorded in this test, key = CC(NC(=O)c1cccc2ccccc12)c1ccc2c(c1)CCCC2 (centres undefined)
Yes

# outcome recorded in this test, key = O=C(N/N=C/c1c[nH]c2ccccc12)c1cc2ccccc2o1
No

# outcome recorded in this test, key = CC1CCCCN1S(=O)(=O)c1ccc(S(=O)(=O)N(CC(=O)Nc2ccccc2)Cc2cccs2)cc1 (centres undefined)
No

# outcome recorded in this test, key = Cc1cc(Nc2ccc(Cl)cc2)nc(N2CCOCC2)n1
No

# outcome recorded in this test, key = COc1ccc(Cn2c(-c3ccc(Cl)cc3)c[n+]3ccccc23)cc1
Yes

# outcome recorded in this test, key = COc1ccc(Cn2c(=O)cc(C)[nH]c2=S)cc1
No

# outcome recorded in this test, key = Cc1c(/C=N\NC(=O)c2cc3ccccc3o2)c2ccccc2n1C
Yes

# outcome recorded in this test, key = Cc1ccc(-c2noc(CN3CCN(Cc4ccccc4)CC3)n2)cc1
No

# outcome recorded in this test, key = Cc1ccc(Nc2c3c(nc4ccccc24)CCC3)cc1
No

# outcome recorded in this test, key = Cc1ccc(-n2c(C)cc(/C=N/Nc3ccc([N+](=O)[O-])cn3)c2C)c(C)c1
Yes

# outcome recorded in this test, key = Cc1ccc(/C=N/NC(=O)CN2CCN(Cc3ccccc3)CC2)s1
No

# outcome recorded in this test, key = CC(C)(C)C(=O)OCc1nc(-c2ccc(O)c(O)c2)cs1
Yes

# outcome recorded in this test, key = O=C1CCCN1CCCNc1ncnc2c1[nH]c1ccccc12
No

# outcome recorded in this test, key = CC(=O)Nc1ccc(Nc2c3ccccc3nc3ccccc23)cc1
Yes

# outcome recorded in this test, key = COc1ccccc1NC1=NC2(CCCC2)N=C(N)N1
No

# outcome recorded in this test, key = CC(=O)c1sc(NC(=O)c2cccc3ccccc23)nc1C
No

# outcome recorded in this test, key = COc1ccccc1NC1=NC(c2ccc(Cl)cc2)N=C(N)N1 (centres undefined)
Yes

# outcome recorded in this test, key = CC(C)OCCCNc1ncnc2c1[nH]c1ccc(F)cc12
Yes

# outcome recorded in this test, key = N#Cc1ccccc1NC(=O)c1cccc(COc2ccc(Cl)cc2Cl)c1
No
